test.system: Proto-oncogene tyrosine-protein kinase receptor Ret (Homo sapiens, UniProt P07949, G810C)
Sequence (P07949 29-1114 G810C limits assumed): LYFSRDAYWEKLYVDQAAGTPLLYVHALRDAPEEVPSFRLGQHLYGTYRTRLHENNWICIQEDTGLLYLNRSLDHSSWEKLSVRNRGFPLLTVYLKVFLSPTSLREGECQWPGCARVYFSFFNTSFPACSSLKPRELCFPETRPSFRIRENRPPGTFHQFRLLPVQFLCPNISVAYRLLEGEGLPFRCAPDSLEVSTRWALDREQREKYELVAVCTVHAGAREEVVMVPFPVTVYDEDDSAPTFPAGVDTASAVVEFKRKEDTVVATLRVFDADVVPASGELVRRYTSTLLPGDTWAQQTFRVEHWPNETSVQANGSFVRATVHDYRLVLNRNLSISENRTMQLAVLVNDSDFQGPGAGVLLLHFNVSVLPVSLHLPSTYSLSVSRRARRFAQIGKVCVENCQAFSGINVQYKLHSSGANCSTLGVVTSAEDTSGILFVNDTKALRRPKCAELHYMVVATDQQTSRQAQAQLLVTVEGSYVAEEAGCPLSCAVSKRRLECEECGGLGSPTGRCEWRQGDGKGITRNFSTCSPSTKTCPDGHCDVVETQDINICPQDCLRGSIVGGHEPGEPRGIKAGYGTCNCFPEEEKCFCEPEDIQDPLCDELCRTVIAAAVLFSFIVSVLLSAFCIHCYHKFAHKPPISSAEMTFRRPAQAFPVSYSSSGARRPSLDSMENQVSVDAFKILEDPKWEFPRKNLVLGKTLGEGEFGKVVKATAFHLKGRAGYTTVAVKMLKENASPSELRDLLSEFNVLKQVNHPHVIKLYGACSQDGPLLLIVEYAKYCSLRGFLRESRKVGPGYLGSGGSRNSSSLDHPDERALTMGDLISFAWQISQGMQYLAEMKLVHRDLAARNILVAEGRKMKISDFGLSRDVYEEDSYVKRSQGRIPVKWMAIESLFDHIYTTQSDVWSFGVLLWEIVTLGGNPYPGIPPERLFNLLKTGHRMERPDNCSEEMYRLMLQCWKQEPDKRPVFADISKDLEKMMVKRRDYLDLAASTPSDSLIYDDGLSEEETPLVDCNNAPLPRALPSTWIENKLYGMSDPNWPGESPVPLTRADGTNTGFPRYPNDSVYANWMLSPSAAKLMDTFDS
experiment.summary: Inhibition of RET G810C mutant (unknown origin)
measured.metric: IC50
Please don't drop the unit; write it after the number.

Request: Tell us which IC50 value is on record for `Cc1nc2cnc(N)c(C#Cc3cncc(C(=O)Nc4ccc(CN5CCN(C)CC5)c(C(F)(F)F)c4)c3)c2nc1C`
Response: 11.6 nM

----------
test.system: Proto-oncogene tyrosine-protein kinase receptor Ret (Homo sapiens)
experiment.summary: Inhibition of wild type His-tagged human RET by ADP-Glo assay
measured.metric: IC50 (nM)
Note: unit nM is implicit; provide only the numeric part.

Request: Tell us which IC50 value is on record for `CCc1cc2c(cc1-c1ccn(CCCN(C)C)n1)C(C)(C)c1[nH]c3cc(C#N)ccc3c1C2=O`
Response: 2

----------
test.system: Proto-oncogene tyrosine-protein kinase receptor Ret (Homo sapiens, UniProt P07949, V804L)
Sequence (P07949 29-1114 V804L limits assumed): as the sequence (P07949 29-1114 G810C limits assumed) above, with V776L, C782G counted along it
experiment.summary: Inhibition of RET V804L mutant (unknown origin)
measured.metric: IC50 (nM)
Note: unit nM is implicit; provide only the numeric part.

Request: Tell us which IC50 value is on record for `CCc1cc2c(cc1-c1ccn(CCCN(C)C)n1)C(C)(C)c1[nH]c3cc(C#N)ccc3c1C2=O`
Response: 9

----------
test.system: Proto-oncogene tyrosine-protein kinase receptor Ret (Homo sapiens, UniProt P07949, G810A)
experiment.summary: Inhibition of RET G810A mutant (unknown origin)
measured.metric: IC50 (nM)
Note: unit nM is implicit; provide only the numeric part.

Request: Tell us which IC50 value is on record for `Cc1nc2cnc(N)c(C#Cc3cncc(C(=O)Nc4ccc(CN5CCN(C)CC5)c(C(F)(F)F)c4)c3)c2nc1C`
Response: 1.88

----------
test.system: Proto-oncogene tyrosine-protein kinase receptor Ret (Homo sapiens)
experiment.summary: Inhibition of wild type human RET by KINOMEscan assay
measured.metric: IC50

Request: Tell us which IC50 value is on record for `Cn1cc(-c2ccc3c(c2)ncn3-c2ccc(CC(=O)Nc3cc(C(C)(C)C)on3)cc2)cn1`
Response: < 1 nM

----------
test.system: UniProtKB P35968
Sequence (P35968 whole entry): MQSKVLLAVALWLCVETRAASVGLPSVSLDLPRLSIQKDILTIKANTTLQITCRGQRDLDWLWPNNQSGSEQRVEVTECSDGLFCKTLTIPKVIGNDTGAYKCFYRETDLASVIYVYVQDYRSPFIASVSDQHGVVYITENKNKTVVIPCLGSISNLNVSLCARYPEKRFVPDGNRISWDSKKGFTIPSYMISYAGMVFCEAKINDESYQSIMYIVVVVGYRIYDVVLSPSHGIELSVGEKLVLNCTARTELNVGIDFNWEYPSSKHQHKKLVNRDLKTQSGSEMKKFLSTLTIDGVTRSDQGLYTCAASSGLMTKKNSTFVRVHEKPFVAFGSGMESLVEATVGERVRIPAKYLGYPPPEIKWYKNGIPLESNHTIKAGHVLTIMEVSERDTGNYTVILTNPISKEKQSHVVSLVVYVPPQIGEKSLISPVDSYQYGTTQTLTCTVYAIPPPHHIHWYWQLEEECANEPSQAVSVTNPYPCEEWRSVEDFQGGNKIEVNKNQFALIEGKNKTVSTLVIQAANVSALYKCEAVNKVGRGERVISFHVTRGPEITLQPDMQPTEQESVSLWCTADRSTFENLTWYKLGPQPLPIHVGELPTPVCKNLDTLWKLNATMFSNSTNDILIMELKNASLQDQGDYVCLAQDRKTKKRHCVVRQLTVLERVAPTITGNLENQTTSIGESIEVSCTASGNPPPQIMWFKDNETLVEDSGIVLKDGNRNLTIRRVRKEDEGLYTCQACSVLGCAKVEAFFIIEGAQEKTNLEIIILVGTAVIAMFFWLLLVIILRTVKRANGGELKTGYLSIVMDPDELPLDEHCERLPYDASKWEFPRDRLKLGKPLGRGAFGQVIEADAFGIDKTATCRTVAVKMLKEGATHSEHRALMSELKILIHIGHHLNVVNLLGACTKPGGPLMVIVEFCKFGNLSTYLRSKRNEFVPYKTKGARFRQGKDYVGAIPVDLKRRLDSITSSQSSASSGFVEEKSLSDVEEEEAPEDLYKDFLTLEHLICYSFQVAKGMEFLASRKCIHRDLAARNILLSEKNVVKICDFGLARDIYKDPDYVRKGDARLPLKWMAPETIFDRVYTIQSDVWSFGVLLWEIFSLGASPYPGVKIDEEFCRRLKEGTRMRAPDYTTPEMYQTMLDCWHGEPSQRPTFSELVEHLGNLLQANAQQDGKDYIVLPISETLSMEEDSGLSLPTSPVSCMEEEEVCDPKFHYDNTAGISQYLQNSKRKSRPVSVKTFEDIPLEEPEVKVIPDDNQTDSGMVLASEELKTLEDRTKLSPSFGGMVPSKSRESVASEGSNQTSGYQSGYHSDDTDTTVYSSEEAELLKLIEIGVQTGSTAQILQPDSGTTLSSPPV
experiment.summary: Inhibition of wild type VEGFR2 (unknown origin) expressed in baculovirus infected insect cells using biotinylated-GGGGQDGKDYIVLPI peptide as substrate incubated for 1 to 4 hrs by TRF assay
pIC50: −log10 of the molar value.
measured.metric: pIC50

Request: Tell us which pIC50 value is on record for `Cn1cc(-c2ccc3c(c2)ncn3-c2ccc(CC(=O)Nc3cc(C(C)(C)C)on3)cc2)cn1`
Response: > 9.00

----------
test.system: Proto-oncogene tyrosine-protein kinase receptor Ret (Homo sapiens, UniProt P07949, G810D)
experiment.summary: Inhibition of RET G810D mutant (unknown origin)
measured.metric: pIC50
pIC50 here is simply -log10 of the concentration when that concentration is written in mol/L.

Request: Tell us which pIC50 value is on record for `Cc1nc2cnc(N)c(C#Cc3cncc(C(=O)Nc4ccc(CN5CCN(C)CC5)c(C(F)(F)F)c4)c3)c2nc1C`
Response: 8.10
